- EXPERIMENTAL_TARGET: Sodium channel protein type 9 subunit alpha (Homo sapiens, UniProt Q15858)
- PROCEDURE_SUMMARY: Inhibition of human Nav1.7 channel expressed in HEK293 cells at 1 uM by FRET assay
- Assay type: cell-based
- Sequence (Q15858 whole entry, looked up): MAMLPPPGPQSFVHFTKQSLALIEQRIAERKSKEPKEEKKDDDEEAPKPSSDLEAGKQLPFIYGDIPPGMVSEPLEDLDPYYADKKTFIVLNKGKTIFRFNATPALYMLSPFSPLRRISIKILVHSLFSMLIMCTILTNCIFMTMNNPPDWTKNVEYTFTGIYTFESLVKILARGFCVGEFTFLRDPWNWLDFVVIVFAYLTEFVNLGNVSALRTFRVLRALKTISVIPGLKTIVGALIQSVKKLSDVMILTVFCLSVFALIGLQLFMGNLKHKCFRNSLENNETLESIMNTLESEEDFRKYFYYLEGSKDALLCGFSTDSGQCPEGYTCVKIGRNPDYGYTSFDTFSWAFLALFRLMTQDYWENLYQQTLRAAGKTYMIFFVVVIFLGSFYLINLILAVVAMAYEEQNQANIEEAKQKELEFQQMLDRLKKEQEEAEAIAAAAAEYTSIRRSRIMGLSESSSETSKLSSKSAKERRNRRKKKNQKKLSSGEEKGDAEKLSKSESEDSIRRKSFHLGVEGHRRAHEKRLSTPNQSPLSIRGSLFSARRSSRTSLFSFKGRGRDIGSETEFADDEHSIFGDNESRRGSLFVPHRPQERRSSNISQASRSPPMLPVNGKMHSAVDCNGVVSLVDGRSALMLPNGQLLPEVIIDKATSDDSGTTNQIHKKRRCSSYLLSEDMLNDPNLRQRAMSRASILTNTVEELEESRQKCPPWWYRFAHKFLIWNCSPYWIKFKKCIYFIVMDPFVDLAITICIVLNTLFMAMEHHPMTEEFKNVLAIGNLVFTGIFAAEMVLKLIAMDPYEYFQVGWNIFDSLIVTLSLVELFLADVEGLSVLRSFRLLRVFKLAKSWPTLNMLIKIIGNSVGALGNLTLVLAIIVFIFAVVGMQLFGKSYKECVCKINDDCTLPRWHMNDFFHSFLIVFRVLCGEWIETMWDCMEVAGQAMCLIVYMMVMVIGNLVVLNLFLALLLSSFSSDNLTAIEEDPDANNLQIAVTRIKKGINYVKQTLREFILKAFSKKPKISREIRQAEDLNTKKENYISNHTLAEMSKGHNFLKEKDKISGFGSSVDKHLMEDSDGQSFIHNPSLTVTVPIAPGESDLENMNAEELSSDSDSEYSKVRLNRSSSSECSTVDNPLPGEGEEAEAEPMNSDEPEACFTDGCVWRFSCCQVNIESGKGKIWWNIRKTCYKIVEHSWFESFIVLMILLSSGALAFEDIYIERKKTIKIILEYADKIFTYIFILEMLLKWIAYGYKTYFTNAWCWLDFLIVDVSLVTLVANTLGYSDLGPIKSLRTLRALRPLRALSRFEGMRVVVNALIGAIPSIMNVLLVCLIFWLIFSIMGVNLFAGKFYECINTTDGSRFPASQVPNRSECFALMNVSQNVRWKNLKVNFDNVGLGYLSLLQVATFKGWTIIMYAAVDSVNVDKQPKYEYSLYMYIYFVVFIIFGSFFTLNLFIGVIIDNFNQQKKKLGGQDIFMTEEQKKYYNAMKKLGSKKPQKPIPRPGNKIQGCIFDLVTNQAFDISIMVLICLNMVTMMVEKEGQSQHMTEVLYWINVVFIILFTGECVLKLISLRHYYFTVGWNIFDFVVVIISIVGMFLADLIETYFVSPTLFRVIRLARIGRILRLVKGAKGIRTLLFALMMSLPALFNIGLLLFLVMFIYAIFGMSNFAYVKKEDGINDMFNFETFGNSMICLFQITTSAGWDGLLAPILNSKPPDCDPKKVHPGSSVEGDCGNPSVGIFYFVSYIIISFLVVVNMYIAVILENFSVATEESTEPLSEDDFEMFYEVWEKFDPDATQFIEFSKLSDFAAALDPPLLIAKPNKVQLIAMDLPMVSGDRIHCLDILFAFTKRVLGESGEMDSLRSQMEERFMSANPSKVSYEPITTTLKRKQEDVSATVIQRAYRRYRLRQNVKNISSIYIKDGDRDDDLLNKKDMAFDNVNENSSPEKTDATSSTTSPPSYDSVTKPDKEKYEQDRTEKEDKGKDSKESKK
RESULT_TYPE: inhibition (%)

Example cases with answers are listed next.
# SUBSTANCE_SMILES, inhibition (%)
data = [
    ("O=C(NC1(c2ccccc2)CC(F)(F)C1)[C@@H]1CCC[C@H]1c1cc(-c2ccccc2)on1", 41),
    ("O=C(NCc1ccccc1)[C@@H]1CCC[C@H]1c1cc(-c2ccccc2)on1", 37),
]

(A) O=C(NC1(c2ccccc2)CCC1)[C@@H]1CCC[C@H]1c1cc(-c2ccccc2O)on1
(B) O=C(NC1(c2ccccc2)CCC1)[C@@H]1CCC[C@H]1c1cc(-c2cccc(=O)[nH]2)on1
Please state the entry with greater inhibition among A and B . # reply format: chosen label
A
(A: 44%, B: 0%)

* * *

- EXPERIMENTAL_TARGET: hERG (KCNH2) (Homo sapiens, UniProt Q12809)
- Sequence (Q12809 whole entry): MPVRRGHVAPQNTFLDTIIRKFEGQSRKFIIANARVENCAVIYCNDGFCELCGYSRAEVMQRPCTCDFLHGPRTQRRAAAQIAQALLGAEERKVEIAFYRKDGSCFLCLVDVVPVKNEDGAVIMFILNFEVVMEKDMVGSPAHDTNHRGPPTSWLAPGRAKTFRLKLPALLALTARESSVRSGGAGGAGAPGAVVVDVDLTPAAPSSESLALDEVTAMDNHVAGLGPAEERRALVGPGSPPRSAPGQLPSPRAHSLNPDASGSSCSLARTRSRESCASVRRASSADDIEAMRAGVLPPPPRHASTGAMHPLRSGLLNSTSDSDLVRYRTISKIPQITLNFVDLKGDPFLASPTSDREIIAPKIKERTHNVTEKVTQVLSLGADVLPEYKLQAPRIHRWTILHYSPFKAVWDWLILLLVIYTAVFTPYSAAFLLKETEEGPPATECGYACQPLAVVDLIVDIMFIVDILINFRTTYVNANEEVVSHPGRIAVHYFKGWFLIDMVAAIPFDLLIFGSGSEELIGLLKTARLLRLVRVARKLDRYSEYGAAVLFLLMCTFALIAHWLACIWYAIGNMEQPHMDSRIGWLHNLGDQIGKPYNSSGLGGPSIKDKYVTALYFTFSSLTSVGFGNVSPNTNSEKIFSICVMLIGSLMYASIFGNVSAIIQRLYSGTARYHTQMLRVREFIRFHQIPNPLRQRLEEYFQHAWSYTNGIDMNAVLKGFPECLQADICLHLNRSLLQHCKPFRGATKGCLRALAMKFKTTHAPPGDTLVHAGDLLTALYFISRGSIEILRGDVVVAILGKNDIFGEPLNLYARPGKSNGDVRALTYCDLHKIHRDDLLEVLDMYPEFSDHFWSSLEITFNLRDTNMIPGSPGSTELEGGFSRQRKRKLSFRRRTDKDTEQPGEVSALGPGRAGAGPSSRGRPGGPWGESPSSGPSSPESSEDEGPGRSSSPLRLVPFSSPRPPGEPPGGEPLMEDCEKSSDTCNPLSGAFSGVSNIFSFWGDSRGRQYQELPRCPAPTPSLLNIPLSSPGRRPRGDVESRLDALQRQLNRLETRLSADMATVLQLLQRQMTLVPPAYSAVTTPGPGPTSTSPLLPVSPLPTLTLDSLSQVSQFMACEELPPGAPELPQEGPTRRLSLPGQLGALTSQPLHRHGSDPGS
- PROCEDURE_SUMMARY: Displacement of [35S]MK-0499 from human ERG expressed in HEK293 cells at 10 uM […]
- Format: cell-based
- REPORTED_CONDITIONS: HEK293 cells expressing human ERG, probe [35S]MK-0499
RESULT_TYPE: inhibition at 10 µM (%)
Write down the numeric answer in % and omit the unit.

See these solved cases before continuing.
# COMPOUND, EXPERIMENTAL_TARGET, QUANTITY_UNIT, inhibition at 10 µM
rows = [
    ("COC1CC(NC(=O)[C@@H]2CCC[C@H]2c2cc(-c3ccccc3)on2)(c2ccccc2)C1 (stereo not given in full)", "hERG (KCNH2) (Homo sapiens, UniProt Q12809)", "%", 51),
    ("O=C(NC1(c2cccc(F)c2)CCC1)[C@@H]1CCC[C@H]1c1cc(-c2ccccc2)on1", "hERG (KCNH2) (Homo sapiens, UniProt Q12809)", "%", 64),
    ("O=C(NC1(c2ccccc2)CCC1)[C@@H]1CCC[C@H]1c1cc(-c2cccc(OC(F)(F)F)c2)on1", "hERG (KCNH2) (Homo sapiens, UniProt Q12809)", "%", 55),
]

Look up inhibition at 10 µM: "O=C(NC1(c2cccc(C(F)(F)F)c2)CCC1)[C@@H]1CCC[C@H]1c1cc(-c2ccccc2)on1"
89

# inhibition at 10 µM lookup, item "COc1ccccc1-c1cc([C@@H]2CCC[C@H]2C(=O)NC2(c3ccccc3)CCC2)no1"
54

* * *

- EXPERIMENTAL_TARGET: hERG (KCNH2) (Homo sapiens, UniProt Q12809)
- PROCEDURE_SUMMARY: Displacement of [35S]MK-0499 from human ERG expressed in HEK293 cells at 10 uM […]
- Format: cell-based
- REPORTED_CONDITIONS: HEK293 cells expressing human ERG, probe [35S]MK-0499
RESULT_TYPE: inhibition at 10 µM (%)
Kindly provide the numeric value in % only, without the unit symbol.

# SUBSTANCE_SMILES, EXPERIMENTAL_TARGET, QUANTITY_UNIT, inhibition at 10 µM
records = [
    ("O=C(NC1(c2ccccc2)CCC1)[C@@H]1CCC[C@H]1c1cc(-c2cccc(O)c2)on1", "hERG (KCNH2) (Homo sapiens, UniProt Q12809)", "%", 64),
    ("O=C(NCc1ccccc1)[C@@H]1CCC[C@H]1c1cc(-c2ccccc2)on1", "hERG (KCNH2) (Homo sapiens, UniProt Q12809)", "%", 35),
    ("O=C(NC1(c2ccccc2)CCC1)[C@@H]1CCC[C@H]1c1cc(-c2cccc(OC(F)(F)F)c2O)on1", "hERG (KCNH2) (Homo sapiens, UniProt Q12809)", "%", 47),
    ("CC(C)(NC(=O)[C@@H]1CCC[C@H]1c1cc(-c2ccccc2)on1)c1ccccc1", "hERG (KCNH2) (Homo sapiens, UniProt Q12809)", "%", 45),
    ("O=C(NC1(c2ccccc2)CCCC1)[C@@H]1CCC[C@H]1c1cc(-c2ccccc2)on1", "hERG (KCNH2) (Homo sapiens, UniProt Q12809)", "%", 85),
    ("O=C(NC1(c2ccccc2)CCC1)[C@@H]1CCC[C@H]1c1cc(-c2cccc(C(F)(F)F)n2)on1", "hERG (KCNH2) (Homo sapiens, UniProt Q12809)", "%", 22),
    ("O=C(NC1(c2ccccc2)CCC1)[C@@H]1CCC[C@H]1c1cc(-c2ccccc2)on1", "hERG (KCNH2) (Homo sapiens, UniProt Q12809)", "%", 37),
    ("O=C(NC1(c2ccccc2)CCC1)[C@@H]1CCC[C@H]1c1cc(-c2ccccc2Cl)on1", "hERG (KCNH2) (Homo sapiens, UniProt Q12809)", "%", 76),
]

API: the following record is the query input.
Give hERG (KCNH2) (Homo sapiens, UniProt Q12809) inhibition at 10 µM for "COc1cccc(-c2cc([C@@H]3CCC[C@H]3C(=O)NC3(c4ccccc4)CCC3)no2)c1"
62

* * *

- EXPERIMENTAL_TARGET: hERG (KCNH2) (Homo sapiens, UniProt Q12809)
- PROCEDURE_SUMMARY: Displacement of [35S]MK-0499 from human ERG expressed in HEK293 cells at 10 uM […]
- Assay type: cell-based
- REPORTED_CONDITIONS: HEK293 cells expressing human ERG, probe [35S]MK-0499
RESULT_TYPE: inhibition at 10 µM (%)
Response body: numeric value in %, unit text excluded.

Use the examples below as a reference point.
# COMPOUND, EXPERIMENTAL_TARGET, OBSERVED
rows = [
    ("O=C(NC1(c2ccccc2)CC1)[C@@H]1CCC[C@H]1c1cc(-c2ccccc2)on1", "hERG (KCNH2) (Homo sapiens, UniProt Q12809)", 47),
    ("COc1ccc(-c2cc([C@@H]3CCC[C@H]3C(=O)NC3(c4ccccc4)CCC3)no2)cc1", "hERG (KCNH2) (Homo sapiens, UniProt Q12809)", 44),
    ("O=C(NC1(c2ccccc2)CC(F)(F)C1)[C@@H]1CCC[C@H]1c1cc(-c2ccccc2)on1", "hERG (KCNH2) (Homo sapiens, UniProt Q12809)", 27),
]

Param readout = inhibition at 10 µM; param system = hERG (KCNH2) (Homo sapiens, UniProt Q12809); param query = O=C(NC1(c2ccccc2)CCC1)[C@@H]1CCC[C@H]1c1cc(-c2cccc(C(F)(F)F)c2O)on1 (stereo in doubt; 30) ; response: value
45

Find inhibition at 10 µM (hERG (KCNH2) (Homo sapiens, UniProt Q12809)) for the entry CC(NC(=O)[C@@H]1CCC[C@H]1c1cc(-c2ccccc2)on1)c1ccccc1 (stereo partly drawn)
47

Give the reported inhibition at 10 µM for "O=C(NC1(c2ccccc2F)CCC1)[C@@H]1CCC[C@H]1c1cc(-c2ccccc2)on1" (system: hERG (KCNH2) (Homo sapiens, UniProt Q12809)).
40

Please state recorded inhibition at 10 µM (tested on hERG (KCNH2) (Homo sapiens, UniProt Q12809)) of "O=C(NC1(c2ccccc2)CCC1)[C@@H]1CCC[C@H]1c1cc(-c2ccc(C(F)(F)F)cc2O)on1"
72

// fetch hERG (KCNH2) (Homo sapiens, UniProt Q12809) inhibition at 10 µM for "O=C(NC1(c2ccccc2)CCC1)[C@@H]1CCC[C@H]1c1cc(-c2ccc(O)cc2)on1"
15

* * *

- EXPERIMENTAL_TARGET: Sodium channel protein type 9 subunit alpha (Homo sapiens, UniProt Q15858)
- PROCEDURE_SUMMARY: Inhibition of human Nav1.7 channel expressed in HEK293 cells by FRET assay
- Sequence (Q15858 whole entry): as the sequence (Q15858 whole entry, looked up) above
RESULT_TYPE: IC50 (nM)

Consider the worked cases shown below.
# MOLECULE, EXPERIMENTAL_TARGET, OBSERVED
rows = [
    ("COc1cccc(-c2cc([C@@H]3CCC[C@H]3C(=O)NC3(c4ccccc4)CCC3)no2)n1", "Sodium channel protein type 9 subunit alpha (Homo sapiens, UniProt Q15858)", 190),
    ("O=C(NC1(c2ccccc2)CCC1)[C@@H]1CCC[C@H]1c1cc(-c2cccc(O)c2)on1", "Sodium channel protein type 9 subunit alpha (Homo sapiens, UniProt Q15858)", 210),
    ("CC(C)(NC(=O)[C@@H]1CCC[C@H]1c1cc(-c2ccccc2)on1)c1ccccc1", "Sodium channel protein type 9 subunit alpha (Homo sapiens, UniProt Q15858)", 430),
    ("CC(NC(=O)[C@@H]1CCC[C@H]1c1cc(-c2ccccc2)on1)c1ccccc1 (stereo partly specified)", "Sodium channel protein type 9 subunit alpha (Homo sapiens, UniProt Q15858)", 1700),
    ("O=C(NC1(c2ccccc2)CCC1)[C@@H]1CCC[C@H]1c1cc(-c2ccccc2Cl)on1", "Sodium channel protein type 9 subunit alpha (Homo sapiens, UniProt Q15858)", 180),
]

(P) COC1CC(NC(=O)[C@@H]2CCC[C@H]2c2cc(-c3ccccc3)on2)(c2ccccc2)C1 (stereo partly specified)
(Q) O=C(NC1(c2ccc(F)cc2)CCC1)[C@@H]1CCC[C@H]1c1cc(-c2ccccc2)on1
(R) O=C(NC1(c2ccccc2)CC(F)C1)[C@@H]1CCC[C@H]1c1cc(-c2ccccc2)on1 (stereo in doubt; 18)
rank_up(items): orders items by reported IC50 in ascending numerical order. Reply with the item labels sorted in the order that was asked for.
Q, R, P

(1) O=C(NC1(c2ccccc2)CCCCC1)[C@@H]1CCC[C@H]1c1cc(-c2ccccc2)on1
(2) O=C(NC1(c2ccccc2)CCC1)[C@@H]1CCC[C@H]1c1cc(-c2cccc(C(F)(F)F)c2O)on1 (stereo in doubt; 30)
(3) O=C(NC1(c2ccccc2)CCC1)[C@@H]1CCC[C@H]1c1cc(-c2ccccc2)on1
(4) O=C(NC1(c2ccccc2)CCCC1)[C@@H]1CCC[C@H]1c1cc(-c2ccccc2)on1
Hi! Can you put these in order of IC50, lowest number first? Response field: labels, in requested order.
3, 4, 2, 1
(3: 120 nM, 4: 220 nM, 2: 340 nM, 1: 580 nM)

(A) O=C(NC1(c2ccccc2)CCC1)[C@@H]1CCC[C@H]1c1cc(-c2ccccc2C(F)(F)F)on1
(B) COc1ccccc1-c1cc([C@@H]2CCC[C@H]2C(=O)NC2(c3ccccc3)CCC2)no1
Choose between A and B : whose measured IC50 value is numerically larger? To answer, give the label that identifies your chosen option.
A
